# Protocol Description: In vitro binding affinity against GABA receptor in mouse brain
# Assay type: tissue-based
Assay Metric: Ki (nM)
Answer format: numeric, nM implied, no suffix.

Task: So what's the measured Ki for this one? "CSc1nn(-c2c(Cl)cc(C(F)(F)F)cc2Cl)c(N)c1C#N"
Output: 4

----------
# Protocol Description: In vitro binding affinity against GABA receptor in house fly
# Set-up: species or system Musca domestica
Assay Metric: pKi
Expect pKi as a plain number equal to -log10 of the molar concentration.

Task: So what's the measured pKi for this one? "CSc1nn(-c2c(Cl)cc(C(F)(F)F)cc2Cl)c(N)c1C#N"
Output: 8.10

The reported numbers originate from ChEMBL document CHEMBL1136361.
